B1: ZNF263 (parent)
chain: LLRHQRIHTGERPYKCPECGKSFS

Variants of: B1
Assay: protein stability index of a GFP-peptide fusion (GPS, HEK-293T) (PSI 1-6); higher = more stable;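 further: lentivirally expressed fusions sorted by FACS into six bins by GFP to DsRed ratio, PSI derived from sequencing read proportions per bin multiplied by bin number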
Conditions: c terminus: a fixed tail appended
Reported protein stability index values for the following variants.
Give the figure by itself; no unit, no explanation.

Please review the entries below; each comes with its answer.
> print(dat)
   mutant.code  assay.value
1         Y14E         2.85
2          H8W         1.73
3         P13V         2.54
4          H8K         2.44
5         S22Y         2.38

Q: Entry `E18S` : reported protein stability index = ?
Result: 2.25

Q: Also need `G10V` , thanks.
Result: 2.43

Q: Also need `K15I` , thanks.
Result: 2.46

Q: Also need `P13N` , thanks.
Result: 2.69
